Reference source for all entries: patent US11407719B2

Reported melting point values are given for each entry in this list.

For orientation, consider the following solved cases.
smilesData: COc1cccc2nc(-c3cc(C)c(OCCN4CCCC4)c(C)c3)[nH]c(=O)c12
melting point: 157 to 158 °C

smilesData: COc1cc(OCCOC(C)C)cc2nc(-c3cc(C)nc(C)c3)[nH]c(=O)c12
melting point: 188 to 189 °C

smilesData: COc1cc(OC)c2c(=O)[nH]c(-c3cc(C)c(OCCN4CCCCCC4)c(C)c3)nc2c1
melting point: 198 to 199 °C

smilesData: COCCOc1cc(OC)c2c(=O)[nH]c(-c3ccc(N4C[C@@H](C)N(C(C)=O)[C@@H](C)C4)cc3)nc2c1
melting point: 225 to 227 °C

smilesData: COc1ccc2nc(-c3cc(C)c(OCCN4CCCC4)c(C)c3)[nH]c(=O)c2c1
melting point: 201.2 to 203.1 °C

// field: melting point; key: `COc1cc(OCCOc2ccccc2)c2c(=O)[nH]c(-c3cc(C)nc(C)c3)nc2c1` ; value = 172.3 to 173.2 °C

According to the records, this molecule `Cc1cc(-c2nc3ccc(CN4CCOCC4)cc3c(=O)[nH]2)ccn1` displays melting point of 267 to 268 °C

Entry `COc1cc(OC)c2c(=O)[nH]c(-c3ccc(Cc4nnn[nH]4)cc3)nc2c1` ; melting point = 295 to 296 °C

# melting point (molecule: `COc1cc(OC)c2c(=O)n(CCCN3CCCC3)c(-c3cc(C)c(OCCCN4CCCC4)c(C)c3)nc2c1` ) is 109 to 111 °C

The molecule `COc1cc(OCCOc2ccccc2)cc2nc(-c3cc(C)nc(C)c3)[nH]c(=O)c12` showed melting point equal to 223 to 224 °C

For this molecule ( `COc1cc(OCCOCc2ccccc2)cc2nc(-c3ccncc3)[nH]c(=O)c12` ), measured melting point is 228.2 to 229.9 °C

====

Tested on: hIL-6 mRNA
assayMethodText: Quantification of hIL-6 mRNA
Type: cell-based, human
Parameters: key: Active: an active compound is one that causes a ≥20% inhibition in IL-6 mRNA at a concentration less than or equal to 10 μM
conditionContext: IL-6 mRNA by real-time PCR; differentiated U937 cells, 1 h pretreatment, lipopolysaccharide stimulation 3 h; concentration ≤10 μM
observationType: Inhibition of IL-6 expression

Some solved cases for reference:
compound: CCCCN1CCN(c2ccc(-c3nc4cc(OC)cc(OC)c4c(=O)[nH]3)cc2)CC1
Inhibition of IL-6 expression: Active
--
compound: COc1cc(OC)c2c(=O)[nH]c(-c3cc(C)c(OCCN4CCCC4)c(C)c3)nc2n1
Inhibition of IL-6 expression: Active
--
compound: COc1cc(OC)c2c(=O)n(CCCN3CCCC3)c(-c3cc(C)c(OCCCN4CCCC4)c(C)c3)nc2c1
Inhibition of IL-6 expression: Active
--
compound: COc1cc(OC)c2c(=O)[nH]c(-c3ccc(N4CCN(C(=O)C5CC5)CC4)cc3)nc2c1
Inhibition of IL-6 expression: Active
--
compound: COc1cc(OC)c2c(=O)[nH]c(-c3cc(C)cc(OCCO)c3)nc2c1
Inhibition of IL-6 expression: Active
--
compound: COc1cc(OC)c2c(=O)[nH]c(-c3ccc(N4C[C@@H](C)N[C@@H](C)C4)cc3)nc2c1
Inhibition of IL-6 expression: Active
--
compound: Cc1cc(-c2nc3ccc(CCN4CCOCC4)cc3c(=O)[nH]2)cc(C)n1
Inhibition of IL-6 expression: Active
--
compound: COc1cc(OC)c2c(=O)[nH]c(-c3cc(C)c(OCCCCN4CCCC4)c(C)c3)nc2c1
Inhibition of IL-6 expression: Active

Query `Cc1cc(-c2nc3cc(F)cc(N4CCCC4)c3c(=O)[nH]2)cc(C)c1OCCN1CCCC1` on hIL-6 mRNA; Inhibition of IL-6 expression returned: Active

Form field Inhibition of IL-6 expression for item `COc1cc(OC)c2c(=O)[nH]c(-c3ccc(N4CCCN(C(C)=O)CC4)cc3)nc2c1` on hIL-6 mRNA: Active

Summary line: `Cc1cc(-c2nc3c(Cl)cccc3c(=O)[nH]2)cc(C)c1OCCN1CCCC1` , hIL-6 mRNA, reported Inhibition of IL-6 expression = Active

Simply: `COc1cc(OC)c2c(=O)[nH]c(-c3ccc(N4CCCNCC4)cc3)nc2c1` , hIL-6 mRNA, Inhibition of IL-6 expression = Active

Short answer on hIL-6 mRNA for `COc1cc(OC)c2c(=O)[nH]c(-c3ccc(N4CCN(C(=O)c5ccccn5)CC4)cc3)nc2c1` , Inhibition of IL-6 expression: Active

// Inhibition of IL-6 expression (hIL-6 mRNA) for `COc1cc(OC)c2c(=O)[nH]c(-c3ccc(N4C[C@@H](C)N(C(C)C)[C@@H](C)C4)cc3)nc2c1` = Active

`COc1cc(OC)c2c(=O)[nH]c(-c3cc(C)c(OCCN4CCC4)c(C)c3)nc2c1` tested on hIL-6 mRNA gave Inhibition of IL-6 expression: Active

====

Test system: hIL-6 mRNA
assayMethodText: Quantification of hIL-6 mRNA
Assay type: cell-based, human
Parameters: key: Active: an active compound is one that causes a ≥20% inhibition in IL-6 mRNA at a concentration less than or equal to 10 μM
conditionContext: IL-6 mRNA by real-time PCR; differentiated U937 cells, 1 h pretreatment, lipopolysaccharide stimulation 3 h; concentration ≤10 μM
observationType: Inhibition of IL-6 expression

molecule: COc1cc(OC)c2c(=O)[nH]c(-c3ccc(Cc4nnn[nH]4)cc3)nc2c1
valueReported: Active
//
molecule: COc1cc(OC)c2c(=O)[nH]c(-c3ccc(N4CCN(Cc5ccccc5)CC4)cc3)nc2c1
valueReported: Active
//
molecule: COc1cc(OC)c2c(=O)[nH]c(-c3cc(C)c(OCCN4C(=O)c5ccccc5C4=O)c(C)c3)nc2c1
valueReported: Active
//
molecule: CCCCCC(=O)N1CCN(c2ccc(-c3nc4cc(OC)cc(OC)c4c(=O)[nH]3)cc2)CC1
valueReported: Active
//
molecule: COc1cc(OC)c2c(=O)[nH]c(-c3ccc(N4CCN(C(C)=O)C(C)C4)cc3)nc2c1 (stereo not shown)
valueReported: Active
//
molecule: COc1cc(OC)c2c(=O)[nH]c(-c3ccc(C4CCN(C(C)=O)CC4)cc3)nc2c1
valueReported: Active

molecule `COc1cc(OC)c2c(=O)[nH]c(-c3ccc4[nH]c(CN5CCCC5)cc4c3)nc2c1` , Inhibition of IL-6 expression observed: Active

`COc1cc(OC)c2c(=O)[nH]c(-c3cc(C)c(OCCN4CCCC4)c(C)c3)nc2c1` has a reported Inhibition of IL-6 expression of Active

Value of Inhibition of IL-6 expression reported for the molecule `COc1cc(OC)c2c(=O)[nH]c(-c3ccc(Nc4ccc(C)cc4)cc3)nc2c1` is Active

Just so you know, measured Inhibition of IL-6 expression for `COc1cccc2c(=O)[nH]c(-c3ccc(N4CCN(C(C)C)CC4)cc3)nc12` came out at Active
